Reference source: the supplement of paper PMC10567573

B1: ACBD3 (parent)
chain: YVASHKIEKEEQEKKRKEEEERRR

# Variants of: B1
# Assay Explanation: protein stability index of a GFP-peptide fusion (GPS, HEK-293T) (PSI 1-6); higher = more stable;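 note: lentivirally expressed fusions sorted by FACS into six bins by GFP to DsRed ratio, PSI derived from sequencing read proportions per bin multiplied by bin number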
# Reported Conditions: c terminus: a fixed tail appended
Experimental Readout: protein stability index

Item Sequence	Experimental Readout	Result Number
YVASHKIEKDEQEKKRKEEEERRR [E10D]	protein stability index	2.42
YVASHKIEKEWQEKKRKEEEERRR [E11W]	protein stability index	2.67
YVASHKIEKEEQEKKRKEEETRRR [E21T]	protein stability index	2.38
YVWSHKIEKEEQEKKRKEEEERRR [A3W]	protein stability index	2.85
YVASHKIEKEEQEKKRKECEERRR [E19C]	protein stability index	2.53
YVASHKIEKEEQEKKQKEEEERRR [R16Q]	protein stability index	2.94
YVASHKIEKEEQEKKRKEEEETRR [R22T]	protein stability index	3.28
YVASHKIEKEEQEKKRYEEEERRR [K17Y]	protein stability index	2.06
YVASHKIEKEEQEKKRKEEEERWR [R23W]	protein stability index	2.02
YVASHKIECEEQEKKRKEEEERRR [K9C]	protein stability index	2.5
YVASHKIEKEEQEKKRKMEEERRR [E18M]	protein stability index	2.46
YVASHKIEKEEQEKKRKEEENRRR [E21N]	protein stability index	2.07
YVASYKIEKEEQEKKRKEEEERRR [H5Y]	protein stability index	2.42
YVASHKIEKEEQEKKRKEEAERRR [E20A]	protein stability index	2.81
YVASHKIEQEEQEKKRKEEEERRR [K9Q]	protein stability index	3.22
YVASHKIEKEEQEKKRKEEEERRL [R24L]	protein stability index	2.75
YVASHKIELEEQEKKRKEEEERRR [K9L]	protein stability index	3.07
YVASHKIEKEEQTKKRKEEEERRR [E13T]	protein stability index	2.33
YVASHKIEKEEQEGKRKEEEERRR [K14G]	protein stability index	2.79
YVASHKIEKEEQEKKRDEEEERRR [K17D]	protein stability index	2.77
YVASHKIEKEEQEKKRKEEEEMRR [R22M]	protein stability index	2.76
YVASHKIEKKEQEKKRKEEEERRR [E10K]	protein stability index	2.46
YVASHKIEKEEQEKKRKEWEERRR [E19W]	protein stability index	2.19
YVASHKIEKEEQEKKRKEEEERLR [R23L]	protein stability index	2.7
YVASHIIEKEEQEKKRKEEEERRR [K6I]	protein stability index	2.66
YVASHKIEKEEQEKKRKEEEERRC [R24C]	protein stability index	2.83
YVSSHKIEKEEQEKKRKEEEERRR [A3S]	protein stability index	3.04
YVASHKIEKCEQEKKRKEEEERRR [E10C]	protein stability index	2.19
YVASHPIEKEEQEKKRKEEEERRR [K6P]	protein stability index	2.67
YVASHKIEKEEQEKKRLEEEERRR [K17L]	protein stability index	3.14
YVASHKIEKQEQEKKRKEEEERRR [E10Q]	protein stability index	1.88
YVASHKKEKEEQEKKRKEEEERRR [I7K]	protein stability index	2.89
YVMSHKIEKEEQEKKRKEEEERRR [A3M]	protein stability index	3.14
MVASHKIEKEEQEKKRKEEEERRR [Y1M]	protein stability index	5.6
YVASHKIEKEEPEKKRKEEEERRR [Q12P]	protein stability index	2.31
YVASHKIAKEEQEKKRKEEEERRR [E8A]	protein stability index	2.23
DVASHKIEKEEQEKKRKEEEERRR [Y1D]	protein stability index	5.55
